target: Cystic fibrosis transmembrane conductance regulator (Homo sapiens, UniProt P13569, N1303K); assay: Potentiation of CFTR N1303K mutant (unknown origin) expressed in rat FRT cells assessed as increase in VX-770-stimulated chloride current in presence of forskolin by short circuit method
Sequence (P13569 whole entry N1303K): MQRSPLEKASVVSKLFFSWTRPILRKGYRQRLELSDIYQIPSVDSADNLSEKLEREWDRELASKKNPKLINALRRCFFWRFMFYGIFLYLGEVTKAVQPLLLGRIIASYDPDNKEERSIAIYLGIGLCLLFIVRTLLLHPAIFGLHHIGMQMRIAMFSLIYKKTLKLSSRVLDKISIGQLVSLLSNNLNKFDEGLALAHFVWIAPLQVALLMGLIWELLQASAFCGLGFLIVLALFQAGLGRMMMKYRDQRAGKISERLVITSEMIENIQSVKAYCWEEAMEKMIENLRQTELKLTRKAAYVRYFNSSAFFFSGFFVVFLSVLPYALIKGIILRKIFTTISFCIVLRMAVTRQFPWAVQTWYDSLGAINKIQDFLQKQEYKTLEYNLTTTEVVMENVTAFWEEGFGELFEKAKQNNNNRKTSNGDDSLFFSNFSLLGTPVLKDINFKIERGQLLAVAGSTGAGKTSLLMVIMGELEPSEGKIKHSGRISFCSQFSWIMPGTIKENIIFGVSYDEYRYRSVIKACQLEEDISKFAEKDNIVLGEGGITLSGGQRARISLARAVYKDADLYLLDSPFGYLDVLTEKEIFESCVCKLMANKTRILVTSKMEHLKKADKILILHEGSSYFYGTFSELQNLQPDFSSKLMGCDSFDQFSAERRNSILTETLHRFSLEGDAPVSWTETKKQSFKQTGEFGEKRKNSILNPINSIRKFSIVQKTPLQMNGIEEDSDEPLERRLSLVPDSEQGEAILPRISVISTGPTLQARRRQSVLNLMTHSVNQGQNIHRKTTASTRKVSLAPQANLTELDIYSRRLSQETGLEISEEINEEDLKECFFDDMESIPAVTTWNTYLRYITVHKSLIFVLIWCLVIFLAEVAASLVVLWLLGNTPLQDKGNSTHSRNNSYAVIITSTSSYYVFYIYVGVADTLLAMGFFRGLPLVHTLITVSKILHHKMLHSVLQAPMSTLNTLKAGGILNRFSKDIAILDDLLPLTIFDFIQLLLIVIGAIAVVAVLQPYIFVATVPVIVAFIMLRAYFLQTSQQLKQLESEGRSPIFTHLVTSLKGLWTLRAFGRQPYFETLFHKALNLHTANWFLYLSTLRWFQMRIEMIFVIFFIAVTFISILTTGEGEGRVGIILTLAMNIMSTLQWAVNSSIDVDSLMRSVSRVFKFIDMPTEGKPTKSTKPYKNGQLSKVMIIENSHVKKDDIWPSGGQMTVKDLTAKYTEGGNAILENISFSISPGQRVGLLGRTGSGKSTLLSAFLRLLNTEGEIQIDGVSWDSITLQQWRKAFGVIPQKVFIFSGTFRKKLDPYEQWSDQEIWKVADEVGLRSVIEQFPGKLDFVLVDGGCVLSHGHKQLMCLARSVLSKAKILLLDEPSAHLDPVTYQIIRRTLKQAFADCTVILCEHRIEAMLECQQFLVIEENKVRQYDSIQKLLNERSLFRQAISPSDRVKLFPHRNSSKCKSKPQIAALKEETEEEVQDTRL
pEC50: −log10 of the molar value.

# molecule, system-tested, pEC50
records = [
    ("COc1ccc2[nH]c3c(c2c1)CCNC31CCN(Cc2ccc([N+](=O)[O-])cc2F)CC1", "Cystic fibrosis transmembrane conductance regulator (Homo sapiens, UniProt P13569, N1303K)", 5.23),
    ("COc1ccc2[nH]c3c(c2c1)CCNC31CCN(Cc2ccc(Br)cc2F)CC1", "Cystic fibrosis transmembrane conductance regulator (Homo sapiens, UniProt P13569, N1303K)", 5.80),
    ("COc1ccc2[nH]c3c(c2c1)CCNC31CCN(Cc2ccccn2)CC1", "Cystic fibrosis transmembrane conductance regulator (Homo sapiens, UniProt P13569, N1303K)", 4.94),
    ("COc1ccc2[nH]c3c(c2c1)CCNC31CCN(C(C)c2ccccc2)CC1 (stereo not drawn)", "Cystic fibrosis transmembrane conductance regulator (Homo sapiens, UniProt P13569, N1303K)", 4.70),
    ("COc1ccc2[nH]c3c(c2c1)CCNC31CCN(Cc2cccnc2)CC1", "Cystic fibrosis transmembrane conductance regulator (Homo sapiens, UniProt P13569, N1303K)", 4.77),
    ("COc1ccc2[nH]c3c(c2c1)CCNC31CCN(Cc2ccco2)CC1", "Cystic fibrosis transmembrane conductance regulator (Homo sapiens, UniProt P13569, N1303K)", 4.79),
    ("Fc1ccc(CN2CCC3(CC2)NCCc2c3[nH]c3ccc(Br)cc23)c(F)c1", "Cystic fibrosis transmembrane conductance regulator (Homo sapiens, UniProt P13569, N1303K)", 4.68),
    ("COc1ccc2[nH]c3c(c2c1)CCNC31CCN(Cc2ccccc2Cl)CC1", "Cystic fibrosis transmembrane conductance regulator (Homo sapiens, UniProt P13569, N1303K)", 5.66),
]
